- measurement.target: T1, recombinant murine midkine (muMK) (murine, UniProt P12025 23-140)
- T1 construct: also called murine MK; Murine MK
- T1 sequence (looked up): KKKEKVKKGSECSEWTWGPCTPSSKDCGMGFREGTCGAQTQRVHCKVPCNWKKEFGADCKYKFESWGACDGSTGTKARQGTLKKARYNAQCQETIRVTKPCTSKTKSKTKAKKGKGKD
- experimental.details: ELISA, plate coated with muMK
observable: EC50 (nM)
Just the number please, in nM, no unit attached.

IP14-H1L7 (antibody, V domains shown, also called Hv1 Lv7) VH: QVQLVQSGAEVKKPGHSVKVSCKASGQSFSSYWMNWVRQAPGQGLEWIGMIHPSDSETILNQKFKDKATLTVDISTSTAYMELSSPRSEDTAVYYCSSWSAKRGDFWGQGTLVTVSS VL: DIVLTQSPATLSLSPGERANLSCRASESISNNLHWYQQKPHQAPRLLIYYASQSISGVPARFSGSGSGTDFNLTISSVEPEDFAVYYCQQSNSWPLTFGQGTKVEIKR = 0.081
IP14-H2L6 (antibody, V domains shown, also called Hv2 Lv6) VH: QVQLVQSGAEVKKPGASVKVSCKASGQSFSSYWMNWVRQAPGQGLEWIGMIHPSDSETILNQKFKDKATLTVDISTSTAYMELSSLRSEDTAVYYCSSWSAKRGDFWGQGTLVTVSS VL: EIVLTQSPSTLSASVGDRVNITCRASESISNNLHWYQQKPHKAPKLLIYYASQSISGVPSRFSGSGSGTEFNLTISSVQPDDFATYYCQQSNSWPLTFGQGTKVEIKR = 0.073

Which value of EC50 has been reported for IP14-H3L1 (antibody, V domains shown, also called Hv3 Lv1) VH: QVQLVQSGAEVKKPGASVKVSCKASGQSFSSYWMNWVRQAPGQGLEWMGMIHPSDSETILNQKFKDKVTMTRDTSTSTVYMELSSLRSEDTAVYYCARWSAKRGDFWGQGTLVTVSS VL: EIVLTQSPATLSLSPGERANLSCRASESISNNLHWYQQKPHQAPRLLIKYASQSISGIPARFSGSGPGTDFNLTISSVEPEDFAVYYCQQSNSWPLTFGGGTKLEIKR in the records?
0.12
